# assay-method-text: circular dichroism
# experimental-setup: 50 mM sodium phosphate (stated for FIG. 5; assumed for the rest); pH 8.0; ns °C
Numbered stars: 1 amine (or outer) side, 2 acyl side, 3 side chain; on linkers, the order of the positions; unused ones are H or OH. Bridge positions count the residues as written; N and C are the ends. Square brackets hold non-standard residues; d marks the D form. Peptide text beside a SMILES is read from it. X1 = O=C([C@]1(CCCC=[*:3])CCCN1[*:1])[*:2]; S8 = C=CCCCCCC[C@](C)(N)C(=O)O
What helicity was measured for each of the following?
Value and unit, in that order.

compound	property-label	observed-result
CC(=O)N1CCC[C@]12CC=CC[C@@](C)(C(=O)N[C@@H](CCCCN)C(=O)N[C@@H](CCCNC(=N)N)C(=O)N[C@@H](C)C(=O)N[C@@H](CCCNC(=N)N)C(=O)N[C@@H](CC(N)=O)C(=O)N[C@H](C(=O)N[C@@H](CCC(=O)O)C(=O)N[C@]1(C)CC=CCCNC(=O)[C@H](Cc3c[nH]c4ccccc34)NC(=O)[C@H](C)NC1=O)[C@@H](C)O)NC(=O)[C@H](C)NC(=O)[C@H](C)NC2=O	helicity	64%

Consider the additional compound presented here.
Q: For the compound CC(=O)N1CCC[C@]12CCCC=CCCCCCC[C@@](C)(C(=O)N[C@@H](CC(N)=O)C(=O)N[C@H](C(=O)N[C@@H](CCC(=O)O)C(=O)N[C@@H](C)C(=O)N[C@@H](C)C(=O)N[C@@H](Cc1c[nH]c3ccccc13)C(N)=O)[C@@H](C)O)NC(=O)[C@H](C)NC(=O)[C@H](CCCNC(=N)N)NC(=O)[C@H](CCCCN)NC(=O)[C@H](CC(C)C)NC(=O)[C@H](C)NC(=O)[C@H](C)NC2=O (Ac-[X1]AALKRA[S8]NTEAAW-NH2; staple 1-8) , what helicity is on record?
Ans: 61%
